Percent Effect by entry:
target-of-assay: Aspartate--tRNA(Asp/Asn) ligase (Mycobacterium tuberculosis (strain ATCC 25618 / H37Rv))
Sequence (whole entry): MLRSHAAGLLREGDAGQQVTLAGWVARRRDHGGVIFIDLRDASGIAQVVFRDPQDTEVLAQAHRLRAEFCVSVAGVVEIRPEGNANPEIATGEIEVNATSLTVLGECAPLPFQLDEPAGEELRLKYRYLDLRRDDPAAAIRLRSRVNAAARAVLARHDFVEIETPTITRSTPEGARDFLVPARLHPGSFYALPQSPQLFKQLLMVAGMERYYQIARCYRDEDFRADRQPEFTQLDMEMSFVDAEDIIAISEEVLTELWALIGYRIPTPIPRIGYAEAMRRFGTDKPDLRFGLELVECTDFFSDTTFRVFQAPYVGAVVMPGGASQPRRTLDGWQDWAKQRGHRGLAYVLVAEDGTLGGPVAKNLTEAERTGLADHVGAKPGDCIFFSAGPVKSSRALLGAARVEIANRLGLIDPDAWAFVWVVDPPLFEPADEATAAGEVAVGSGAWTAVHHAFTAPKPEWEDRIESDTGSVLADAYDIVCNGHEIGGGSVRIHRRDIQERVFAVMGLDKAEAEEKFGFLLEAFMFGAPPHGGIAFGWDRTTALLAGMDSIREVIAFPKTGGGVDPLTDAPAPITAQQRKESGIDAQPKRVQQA
test-description: Assay for Asp RNA synthetase-1 from Mycobacterium tuberculosis
Assay type: functional
Design: scale not given: in the data most compounds retested in dose-response had high values
stated-conditions: 30 µM

Entry `CCN(Cc1nc2c(cnn2C)c(=O)[nH]1)c1cccc(F)c1` , tested on Aspartate--tRNA(Asp/Asn) ligase (Mycobacterium tuberculosis (strain ATCC 25618 / H37Rv)), has a reported Percent Effect of 1.24%

Entry `CCN1C[C@@H]2[C@@H](OC)CCN(S(=O)(=O)c3ccccc3F)[C@@H]2C1` , tested on Aspartate--tRNA(Asp/Asn) ligase (Mycobacterium tuberculosis (strain ATCC 25618 / H37Rv)), has a reported Percent Effect of -3.02%

Entry CC(C)c1ccc(C(O)Cn2c(=O)c(C#N)cn(C3CC3)c2=O)cc1 (configuration not stated) , tested on Aspartate--tRNA(Asp/Asn) ligase (Mycobacterium tuberculosis (strain ATCC 25618 / H37Rv)), has a reported Percent Effect of 2.61%

Entry `NC(=O)NC(=O)CCN1CCCN(c2nccs2)CC1` , tested on Aspartate--tRNA(Asp/Asn) ligase (Mycobacterium tuberculosis (strain ATCC 25618 / H37Rv)), has a reported Percent Effect of 1.54%

Entry `CC(C)NC(=O)c1ccc2c(c1)nc1n2CCN(c2ccccc2)C1` , tested on Aspartate--tRNA(Asp/Asn) ligase (Mycobacterium tuberculosis (strain ATCC 25618 / H37Rv)), has a reported Percent Effect of 0.0581%

Entry `CCN1CCCN(C(=O)c2cnc(OC(C)C)c(Cl)c2)CC1` , tested on Aspartate--tRNA(Asp/Asn) ligase (Mycobacterium tuberculosis (strain ATCC 25618 / H37Rv)), has a reported Percent Effect of -0.365%
